The following binders are listed with their measured percent of complexes values.
tested target: anti-CC49 variable region antibodies in the serum of patient four
test: HPLC, 125I-HuCC49 + serum + 5 Tg competitor; fewer complexes = competitor bound

{"columns": ["binder", "percent of complexes, %"],
 "data": [
  ["HuCC49 CDR variant L-1 (antibody, V domains shown) VH: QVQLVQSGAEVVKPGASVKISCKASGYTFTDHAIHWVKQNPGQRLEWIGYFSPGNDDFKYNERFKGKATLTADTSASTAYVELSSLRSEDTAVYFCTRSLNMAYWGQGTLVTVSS VL: DIVMSQSPDSLAVSLGERVTLNCKSSQSVLYSSNSKNYLAWYQQKPGQSPKLLIYWASARESGVPDRFSGSGSGTDFTLTISSVQAEDVAVYYCQQYYSYPLTFGAGTKLELK", 9.8],
  ["HuCC49 CDR variant H-1 (antibody, V domains shown) VH: QVQLVQSGAEVVKPGASVKISCKASGYTFTSYAMHWVKQNPGQRLEWIGYFSPGNDDFKYNERFKGKATLTADTSASTAYVELSSLRSEDTAVYFCTRSLNMAYWGQGTLVTVSS VL: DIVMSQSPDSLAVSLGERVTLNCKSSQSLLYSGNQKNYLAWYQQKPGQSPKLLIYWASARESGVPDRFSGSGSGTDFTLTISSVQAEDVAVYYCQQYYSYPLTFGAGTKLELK", 3.3]
]}
